Test: yeast display, Sf9 membrane polyspecificity reagent, FACS + sequencing; frameworks hold sequencing errors
QUANTITY_KIND: polyreactivity (PSR sort gate)

// solved cases for polyreactivity (PSR sort gate) follow
| SEQUENCE_TEXT | polyreactivity (PSR sort gate) |
| --- | --- |
| QVQLVESGGGLVQAGGSLRLSCAASGSTFGRYAMGWYRQAPGKERELVAAISRGTTTNYADSVKGRFTIARDNAKNTVYLQMNSLKPEDTAVYYCAADQPSKRYYSWGQGTQVTVSS | low polyreactivity |
| QVQLVESGGGLVQAGGSLRLSCAASGIIFDDYAMGWYRQAPGKERELVAAISVSGGSTYYADSVKGRFTISRDNAKNTVYLQMNSLKPEDTAVYYCAARLRQPYTRGNYWGQGTQVTVSS | high polyreactivity |
| QVQLVESGGGLVQPGGSLSLSCAASGFTFTYYAMGWYRQAPGKEMELVAAISWSGDSTYYADSVKGRFTISRDNAKNNVYLQMNSLKPEDSAVYYCGSEYSHTYDYWGQGTLVTVSS | low polyreactivity |
| QVKLVESGGGLVQAGGSLRLSCAASGRTFGIYAMGWYRQAPGKERELVAAITWSGDSTYYADSVKGRFTISRDNAKNTVYLQINSLKPEDTAVYYCAADYVGVTSVRYDYWGQGTQVTVSS | low polyreactivity |
| QVPLVESGGGLVQAGGSLRLSCAASGRIFSSYAMGWYRQAPGKERELVAAISSRGGSTYYADSVKGRFTISRDNAKNTVYLQMNSLKPEDTAVYYCARVKYSGVVYKYDYWGQGTQVTVSS | high polyreactivity |

Any idea what polyreactivity (PSR sort gate) was measured for QFQLVESGGGLVQAGGSLRLSCAASGFIFQEYAMGWYGQAPGKERELVAAITSGGSTNYADSVKGRFTISRDNAKNTVYLQMNSLKPEDTAVYYCNVDSPDYYYDYDYWGHGTQVTVSS ?
low polyreactivity

Please answer likewise for QVQLVESGGGLVQAGGSLRLSCAASGSTLSDNAMGWYRQAPGKERELVASISWSGGTYYADSVKGRFTISRDNAKNTVYLQMNSLKPEDTAVYYCAAYIYYNYSRQYWYDYWGQGTQVTVSS
low polyreactivity

Follow-up entry: QVQLVESGGGLVQAGGSLRLSCAASGITIYKYAMGWSRQAPGKERELVAVISRSGGSTYYADSVKGRFTISRDNAKNTVYLQMNSLKPEDTAVYYCAADYRYPRQSKYYYWGQGTQVTVSS
high polyreactivity

Again, but for QVQLVESGGGLVQAGGSLRLSCAASGSIFPYYAMGWYRQAPGKERELVATITYRGGSTNYADSVKGRFTISRDNAKNTVYLQMNSLKPEDTAVYYCAAYGYVLASPYPYSFVKLGYWGQGTQVTVSS
low polyreactivity

Next: QVQLVESGGGLVQAGGSLRLSCAASGIIFGYNVMGWYRQAPGKERELVAAISGSGSSTYYADSVKGRFTISRDNAKNTVYLQMNSLKPEDTAVYYCARQRYEYRTTYYYWGQGTQVTVSS
high polyreactivity

And what about the sequence QVQLVESGGGLVQAGGSLRLSCAASGNTFYNVYAMGWYRQATGKERELVAAITARGSTYADSVKGRFTISRDNAKNTVYLQMNSLKPEDNAVYYGATRSSWLYRGLYYNGFNYWGQGTQVTVSS ?
high polyreactivity
